- measured_on: human μ-opioid receptor (Homo sapiens, UniProt P35372)
- Construct: purchased NEN, Zaventem, Belgium RB-HOM; host or cells: CHO-K1 cells (membrane preparation)
- Sequence (P35372 whole entry): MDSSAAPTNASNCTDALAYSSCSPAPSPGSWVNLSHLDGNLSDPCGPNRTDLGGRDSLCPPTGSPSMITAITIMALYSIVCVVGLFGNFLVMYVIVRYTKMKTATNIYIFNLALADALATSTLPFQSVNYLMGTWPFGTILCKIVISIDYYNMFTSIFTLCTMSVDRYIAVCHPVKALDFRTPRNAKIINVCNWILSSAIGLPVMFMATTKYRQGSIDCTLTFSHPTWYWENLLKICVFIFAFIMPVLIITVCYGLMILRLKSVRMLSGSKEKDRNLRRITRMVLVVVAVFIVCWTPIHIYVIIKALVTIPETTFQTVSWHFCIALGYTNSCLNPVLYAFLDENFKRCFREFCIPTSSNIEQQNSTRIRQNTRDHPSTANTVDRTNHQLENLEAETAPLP
- assay_name: Affinity to the human μ-opioid receptor ([3H]-naloxone displacement, SPA)
- Type: binding
- settings: compound 1 μmol/l; 1 nmol/l [3H]-naloxone; CHO-K1 membrane preparation; read-out: μ-opioid receptor (man) (% inhibition)
So basically: inhibition at 1 µM at 50% or higher? That is Condition met. Lower than 50%? That is Condition not met.

Here are 4 compounds together with their reported answers.
smiles_data: CN(C(=O)Cc1ccccc1)c1nc2n(c1C(=O)N1CCN(c3ccccc3)CC1)CCCC2
qualitative_label: Condition not met
//
smiles_data: CN(C(=O)c1cccc(Cl)c1)c1nc2n(c1C(=O)N1CCN(CCc3ccccc3)CC1)CCCC2
qualitative_label: Condition not met
//
smiles_data: CCCCN(C(=O)c1cccc(Cl)c1)c1nc2n(c1C(=O)Nc1ccc3c(c1)OCCO3)CCCC2
qualitative_label: Condition met
//
smiles_data: CCCCN(C(=O)c1ccc(F)c(F)c1)c1nc2n(c1C(=O)NCCC(c1ccccc1)c1ccccc1)CCCC2
qualitative_label: Condition not met

Assess whether reported inhibition at 1 µM for CN(C(=O)c1cccc2ccccc12)c1nc2n(c1C(=O)NCc1cc(C(F)(F)F)cc(C(F)(F)F)c1)CCCC2 sits at 50% or higher.
Condition not met

Assess whether reported inhibition at 1 µM for Cc1cc(Cl)cc(Cl)c1CNC(=O)c1c(N(C)C(=O)c2ccccc2)nc2n1CCCC2 sits at 50% or higher.
Condition met
